Tested on: MDA-MB-231
procedure_summary: NCI tumour cell line growth inhibition, 48 h
Calls of active or inactive are those of the source. Rule as the data show it: active = GI50 up to about 1.1 µM and inactive = higher.
Return exactly one item of active, inactive

CC(=O)O[C@H]1CC[C@@]2(C)C(=CC[C@@H]3[C@@H]2CC[C@]2(C)c4c(C)nn(-c5ccccc5)c4C[C@@H]32)C1 | inactive

Data request: Dear all, I need the recorded test outcome for C=CCN1C(=O)/C(=C/c2ccc(OC)cc2)N=C1SC/C=C/C , thank you.
Data returned: inactive

Data request: Would you mind telling me which call this test gave c1csc(-c2csc(-c3ccsc3)c2)c1 ?
Data returned: inactive

Data request: Record request — test call for C/C1=C/C2=CC(C)C[C@@H]2C(=O)[C@]2(C)C(=O)CC(C)(C)[C@H]2CC1=O (some centres undefined)
Data returned: inactive

Data request: What outcome does the record of this test show for O=C(c1cccs1)N1CCc2ccccc2C1 ?
Data returned: inactive

Data request: Short answer needed: outcome of this test for C[C@@H]1CC[C@H]2[C@H](C)C(OC3O[C@@H]4O[C@@]5(C)CC[C@H]6[C@H](C)CC[C@@H]([C@@H]3C)[C@@]46O5)O[C@@H]3O[C@@]4(C)CC[C@@H]1[C@]32O4 (some centres undefined) ?
Data returned: inactive

----------
System: KM12
procedure_summary: NCI tumour cell line growth inhibition, 48 h
Active and inactive are the calls of the source. Rule as the data show it: active = GI50 up to about 1.1 µM and inactive = higher.
recorded_endpoint: GI50

COc1ccc(C2C(Cl)C(=O)N2n2cnc3ccccc3c2=O)cc1 (stereo not given) | > 100 µM (inactive)
COc1ccc(C2C3=C(CCCC3=O)N(c3ccccc3)C3=C2C(=O)CCC3)cc1 | > 100 µM (inactive)

Hi team, please reply with GI50 for each item in this list.
1. C=CCN1C(=O)/C(=C/c2ccc(OC)cc2)N=C1SC/C=C/C
2. [O-][S+]1C(=c2ccc(=C3Sc4ccccc4S3)cc2)Sc2ccccc21 (stereo not given)
3. O=c1[nH]c2nc[nH]c2c(=O)n1C1CCCCC1
4. CC1(C)N(OC2CCCCO2)C(c2ccccc2)C(c2ccccc2)=[N+]1[O-] (stereo not given)
5. COc1ccc(CNc2cc(=O)n(C)c(=O)[nH]2)cc1
6. CC1=C(C(=S)Nc2ccc(Cl)c(C(=O)OC(C)C)c2)SCCO1

Data returned:
["28.8 µM (inactive)", "17.4 µM (inactive)", "> 100 µM (inactive)", "93.5 µM (inactive)", "> 100 µM (inactive)", "19.4 µM (inactive)"]

Would you be so kind as to report GI50 for each listed record?
1. O=c1[nH]c(=O)n(C2CC(O)C(COP(=O)(OCC(Cl)(Cl)Cl)OCC(Cl)(Cl)Cl)O2)cc1F (stereo not given)
2. O=C1c2ccsc2-c2cccc3cccc1c23.O=C1c2sccc2-c2cccc3cccc1c23

Data returned:
1. > 100 µM (inactive)
2. 3.52 µM (inactive)

----------
Test system: NCI-H23
procedure_summary: NCI tumour cell line growth inhibition, 48 h
Activity calls are given as the source filed them. Cut-off read from the data, not from the text of the source: active = GI50 up to about 1.1 µM and inactive = higher.
Please respond with reported GI50 for every item in the list.

Solved entries (count: 4):
c1cc(-c2cn3c(n2)SCC3)ccn1 | > 100 µM (inactive)
COc1ccc2c(c1)CN1CCc3c(cc(OC)c(OC)c3OC)C1C2 (stereo unspecified) | > 100 µM (inactive)
O=C1c2c(Br)sc(Br)c2[C@H]2OC(=S)N[C@@H]12 | 5.15 µM (inactive)
Cc1ccc(S(=O)(=O)N/N=C2/CC[C@H](C(C)(C)C)C[C@@H]2C)cc1 | 17.1 µM (inactive)

Give GI50 for each of the items listed below.
1. COc1ccc(C2C(Cl)C(=O)N2NC(=O)c2ccc(NC(C)=O)cc2)cc1 (stereo unspecified)
2. Cc1cc2c(cc1-c1cc3c(cc1C)C(C(C)C)=C(O)C(=O)/C3=C\Nc1ccccn1)/C(=C/Nc1ccccn1)C(=O)C(O)=C2C(C)C
3. O=C(O[C@H](/C=C/c1ccccc1)P1(=O)N(Cc2ccccc2)[C@@H]2CCCC[C@H]2N1Cc1ccccc1)c1ccccc1
4. N#CC(NNC(=O)c1c(Cl)c(Cl)c(Cl)c(Cl)c1-c1nc2cc(C(=O)c3ccccc3)ccc2[nH]1)c1ccccc1 (stereo unspecified)

Data returned:
1: > 100 µM (inactive); 2: 46.9 µM (inactive); 3: 2.47 µM (inactive); 4: 7.45 µM (inactive)

----------
Test system: NCI-H522
procedure_summary: NCI tumour cell line growth inhibition, 48 h
Activity calls are given as the source filed them. Rule as the data show it: active = GI50 up to about 1.1 µM and inactive = higher.
recorded_endpoint: GI50

# example entries with known answers
CCOc1ccccc1NC(=O)CC1C(=O)Nc2ccccc2[S+]1[O-] (stereo not given) | 45.4 µM (inactive)
CC(=O)N1c2ccccc2C(C)(C)OC1C(Cl)(Cl)Cl (stereo not given) | 23.3 µM (inactive)
CC(=O)OCC1OC(SC2=N/C(=C\c3ccc(Br)s3)C(=O)N2CN2CCOCC2)C(OC(C)=O)C(OC(C)=O)C1OC(C)=O (stereo not given) | 6.87 µM (inactive)

Provide reported GI50 for each item, in the same order as listed.
1. CCOC(=O)Cc1nc2c(O)ncnc2n1C1OC(COC(C)=O)C(OC(C)=O)C1OC(C)=O (stereo not given)
2. CN(C)c1ccc(/C=C(\NC(=O)c2ccccc2)C2NC(Cc3c[nH]c4ccccc34)C(=O)O2)cc1 (stereo not given)

Data returned:
["> 100 µM (inactive)", "3.46 µM (inactive)"]

----------
Test system: OVCAR-5
procedure_summary: NCI tumour cell line growth inhibition, 48 h
The source made the active and inactive calls. No stated cut-off is given here; in the data, active = GI50 up to about 1.1 µM and inactive = higher.
Would you mind telling me the reported GI50 of each entry?

CCCCCCCCCCCCCCCCNc1ccn(C2CC(O)C(COC(c3ccccc3)(c3ccccc3)c3ccc(OC)cc3)O2)c(=O)n1 (stereo not given) | > 100 µM (inactive)
O=Cn1c2ccccc2c2ccccc21 | > 100 µM (inactive)
O=C1/C(=C2\SCC(=O)N2c2ccccc2)SC(=S)N1c1ccccc1 | > 100 µM (inactive)
O=[N+]([O-])c1ccc(C2N3CCCCC3[C@H]3CCCCN23)cc1 (stereo not given in full) | > 100 µM (inactive)

Kindly consider the entry below.
Data request: Give the measured GI50 for Cc1cc(C)c2c(=N)c3ccccc3n(CCCCCCn3c4ccccc4c(=N)c4c(C)cc(C)nc43)c2n1
Data returned: 1.84 µM (inactive)

----------
Tested on: SK-MEL-5
procedure_summary: NCI tumour cell line growth inhibition, 48 h
Active and inactive are the calls of the source. Cut-off read from the data, not from the text of the source: active = GI50 up to about 1.1 µM and inactive = higher.
recorded_endpoint: GI50

Illustrative cases are given below, each with its answer.
OC1(c2ccc(Cl)cc2)c2ccc(CN3CCCC3)cc2C2=NCCN21 (stereo not given) | 10.5 µM (inactive)
CC(NC(=O)/C(=C/c1ccccc1O)NC(=O)c1ccccc1)C(=O)O (stereo not given) | 55.2 µM (inactive)
CCCCCCc1cc2cc(C(=O)Nc3ccccc3F)c(=N)oc2cc1O | 3.19 µM (inactive)
C[C@]12CC[C@H](O)CC1=CC[C@@H]1[C@@H]2CC[C@]2(C)c3nc(Cl)ccc3C[C@@H]12 | > 46.2 µM (inactive)
COc1ccccc1C[C@@H]1OC2(C=CC(=O)CC2SC(=O)c2ccccc2)O[C@H]1Cc1ccccc1OC (stereo not given in full) | 1.62 µM (inactive)
Nc1ccc(C(c2ccccc2)(c2ccccc2)c2ccccc2)cc1 | 42.2 µM (inactive)
CC(=O)OCC1OC(n2c(N)c(C#N)c(-c3ccc(C)cc3)c(C#N)c2=S)C(OC(C)=O)C(OC(C)=O)C1OC(C)=O (stereo not given) | 11.1 µM (inactive)
CCC(c1nc2ccccc2c(=O)n1NC(=O)C(C)(C)C)C1(O)CCCCC1 (stereo not given) | > 100 µM (inactive)
OC(c1cccs1)c1cc2ccccc2s1 (stereo not given) | > 10 µM (inactive)

Next up:
Data request: // fetch GI50; item: COc1cc2c(cc1OC)C13CCN4CC5=CCOC6CC(=O)N2C1C6C5CC43O (stereo not given) ; system: SK-MEL-5
Data returned: > 100 µM (inactive)

----------
Tested on: NCI/ADR-RES
procedure_summary: NCI tumour cell line growth inhibition, 48 h
Active and inactive are the calls of the source. No stated cut-off is given here; in the data, active = GI50 up to about 1.1 µM and inactive = higher.
For each record, write down the corresponding GI50.

Use the examples below as a reference point.
C[C@]12CC[C@H](O)CC1=CC[C@@H]1[C@@H]2CC[C@]2(C)c3nc(Cl)ccc3C[C@@H]12 | 29.5 µM (inactive)
Cc1cn([C@H]2C[C@@H](N3C(=O)c4ccccc4C3=O)[C@@H](CO[Si](C)(C)C(C)(C)C)O2)c(=O)[nH]c1=O | 43.3 µM (inactive)
C=C(CO[Si](C)(C)C(C)(C)C)C(C)=O | 26.9 µM (inactive)
CC1=C(C(=S)Nc2ccc(Cl)c(C(=O)OC(C)C)c2)SCCO1 | 18.8 µM (inactive)
NC(=O)NCCSC1CCCCC1O (stereo unspecified) | > 100 µM (inactive)

Take each entry in turn and give its GI50.
1. Cc1c(C)c2c(c(N)c1C#N)C(=O)N(CCc1ccccc1)C2=O
2. S=C1CSc2c(ccc3ccccc23)N1
3. Cc1c(OCc2cccc3ccccc23)ccc2c(O)cc(=S)oc12
4. O=c1cc(CBr)c2ccc(O)cc2o1

Data returned:
1: > 100 µM (inactive); 2: > 100 µM (inactive); 3: 38.2 µM (inactive); 4: 87.9 µM (inactive)

Could you report GI50 for every entry in the following list?
1. Nc1ncnc2c1ncn2CCCCC(=O)O
2. Cc1ccc2nc(Cl)c(/C=N/N3C(=O)/C(=C/c4ccccc4S)N=C3c3ccccc3)cc2c1

Data returned:
1: > 100 µM (inactive); 2: 22.9 µM (inactive)
